tested-on: UniProtKB P0DTD1
experiment-description: Binding affinity to recombinant SARS-CoV-2 Nsp9 at 50 uM by Mass spectrometry analysis relative to control
property-label: Activity (%)
Numbers only, in %.

// known answers, use as guide
1. C=C1C(=O)[C@]23[C@H](O)[C@@H]1C[C@@H](O)[C@H]2[C@]12CCCC(C)(C)[C@H]1[C@H](O)[C@@]3(O)OC2 | 0.89
2. C=C1C(=O)[C@]23[C@H](O)[C@@H]1CC[C@H]2[C@@]12C(O)[C@@]3(O)C(=O)[C@@H]1C(C)(C)CC[C@@H]2O (some centres not stated) | 0.38

Report Activity for every entry below.
1. C=C1[C@H]2CC[C@H]3[C@@]45CO[C@](O)([C@@H](O)[C@@H]4C(C)(C)CC[C@@H]5O)[C@@]3([C@@H]1O)[C@@H]2O
2. C=C1C(=O)[C@]23[C@H](O)[C@@H]1CC[C@H]2[C@@]12CO[C@@]3(O)[C@@H](O)[C@@H]1C(C)(C)CC[C@@H]2O

Result block:
1: 16; 2: 1

Could you tell me Activity for each of these compounds? They are listed below.
1. C=C1C(=O)[C@]23[C@H](O)[C@@H]1[C@@H](O)C[C@H]2[C@]12CCCC(C)(C)[C@H]1[C@H](O)[C@@]3(O)OC2
2. C=C1C(=O)[C@@]23[C@H]4O[C@H]5O[C@]2(O)[C@@H](O)[C@@H]2C(C)(C)CC[C@H](O)[C@]52[C@@H]3CC[C@H]14
3. C=C1C(=O)[C@]23[C@@H](O)[C@H]1CC[C@H]2[C@@]12COC3(O)C[C@@H]1C(C)(C)CC[C@@H]2O

Result block:
[0, 1, 0.04]

###

Provide the recorded Activity for the entries that follow.
tested-on: Replicase polyprotein 1ab (Severe acute respiratory syndrome coronavirus 2) (UniProt P0DTD1)
experiment-description: Binding affinity to recombinant SARS-CoV-2 Nsp9 at 10 uM by Mass spectrometry analysis relative to control
One number for each entry, in %.

Field: example entries. Status: answers known.
1) C=C1C(=O)[C@]23[C@H](O)[C@@H]1CC[C@H]2[C@@]12C(O)[C@@]3(O)C(=O)[C@@H]1C(C)(C)CC[C@@H]2O (some centres not stated) | 0.05
2) C=C1C(=O)[C@]23[C@H](O)[C@@H]1CC[C@H]2[C@@]12CO[C@@]3(O)[C@@H](O)[C@@H]1C(C)(C)CC[C@@H]2O | 0.71
3) C=C1C(=O)[C@@]23[C@H]4O[C@H]5O[C@]2(O)[C@@H](O)[C@@H]2C(C)(C)CC[C@H](O)[C@]52[C@@H]3CC[C@H]14 | 0.27

I would be grateful if you could provide Activity for each of the following entries.
1. C=C1C(=O)[C@]23[C@@H](O)[C@H]1CC[C@H]2[C@@]12COC3(O)C[C@@H]1C(C)(C)CC[C@@H]2O
2. C=C1[C@H]2CC[C@H]3[C@@]45CO[C@](O)([C@@H](O)[C@@H]4C(C)(C)CC[C@@H]5O)[C@@]3([C@@H]1O)[C@@H]2O
3. C=C1C(=O)[C@]23[C@H](O)[C@@H]1[C@@H](O)C[C@H]2[C@]12CCCC(C)(C)[C@H]1[C@H](O)[C@@]3(O)OC2

Result block:
1: 0; 2: 2; 3: 0

Query block: What does the record list as Activity for C=C1C(=O)[C@]23[C@H](O)[C@@H]1C[C@@H](O)[C@H]2[C@]12CCCC(C)(C)[C@H]1[C@H](O)[C@@]3(O)OC2 ?
Result block: 0.15
